Assay: Selectivity index, ratio of CC50 for human P3HR1 cells to EC50 for EBV infected in TPA and sodium butyrate-induced P3HR1 cells
Set-up: species or system P3HR-1
Ratio CC50/EC50: recorded values
quantity: Ratio CC50/EC50

smiles | comparison_sign | observed_value
CC(=O)O[C@H]1[C@H](OC(=O)c2cccnc2)[C@@]2(C)C(C)=CC[C@@H](OC(=O)c3cccnc3)[C@@H]2[C@@]2(C)CC[C@]3(COC(=O)C3)O[C@@]12C | = | 109.2
C=CC(C)(C)c1cc2cc3c(cc2oc1=O)O[C@H](C(C)(C)OC(C)=O)C3 | > | 39.6
CC1=CCC[C@H]2[C@@]1(C)[C@@H](OC(=O)c1ccccc1)[C@H](O)[C@]1(C)O[C@]3(COC(=O)[C@@H]3O)C[C@H](OC(=O)c3ccccc3)[C@]21C | = | 2.9

----------
Ratio CC50/EC50: recorded values
Assay: Selectivity index, ratio of CC50 for human P3HR1 cells to EC50 for EBV infected in TPA and sodium butyrate-induced P3HR1 cells
Set-up: species or system P3HR-1
quantity: Ratio CC50/EC50

smiles | observed_value
CC1=CCC[C@H]2[C@@]1(C)[C@@H](OC(=O)c1ccccc1)[C@H](OC(=O)C(C)C)[C@](C)(O)[C@]2(C)/C=C/C1=CC(=O)OC1 | 5.4
CC1=CCC[C@H]2[C@@]1(C)[C@@H](OC(=O)c1ccccc1)[C@H](OC(=O)c1cccnc1)[C@](C)(O)[C@]2(C)/C=C/C1=CC(=O)OC1 | 61.1
CC(=O)O[C@H]1[C@H](OC(C)=O)[C@]2(C)O[C@]3(CC[C@]2(C)[C@H]2[C@H](OC(=O)c4ccccc4)CC=C(C)[C@]12C)COC(=O)C3 | 57.2

----------
Tested on: Human gammaherpesvirus 4
Assay: Antiviral activity against EBV infected in TPA and sodium butyrate-induced P3HR1 cells assessed as inhibition on EBV lytic replication incubated for 48 hrs by SYBR green dye based real-time PCR method
Assay type: functional, organism-based
Details: human gammaherpesvirus 4, P3HR-1, 48 h
pEC50: −log10 of the molar value.
pEC50: recorded values
quantity: pEC50

smiles | quantity | observed_value
CC(=O)O[C@@H](CC1=CC(=O)OC1)[C@]1(C)[C@H]2CCC=C(C)[C@]2(C)[C@@H](OC(=O)c2ccccc2)[C@H](O)[C@]1(C)O | pEC50 | 5.06
CC1=CCC[C@H]2[C@@]1(C)[C@@H](OC(=O)c1ccccc1)[C@H](OC(=O)c1ccccc1)[C@](C)(O)[C@]2(C)/C=C/C1=CC(=O)OC1 | pEC50 | 4.84
CC(=O)O[C@H]1[C@H](OC(C)=O)[C@]2(C)O[C@]3(CC[C@]2(C)[C@H]2[C@H](OC(=O)c4ccccc4)CC=C(C)[C@]12C)COC(=O)C3 | pEC50 | 4.89
CC1=CCC[C@H]2[C@@]1(C)[C@@H](OC(=O)c1ccccc1)[C@H](O)[C@]1(C)O[C@]3(COC(=O)C3)C[C@H](OC(=O)c3ccccc3)[C@]21C | pEC50 | 4.74
CC(=O)O[C@H]1[C@H](OC(=O)c2cccnc2)[C@@]2(C)C(C)=CC[C@@H](OC(=O)c3cccnc3)[C@@H]2[C@@]2(C)CC[C@]3(COC(=O)C3)O[C@@]12C | pEC50 | 4.79
C=CC(C)(C)c1cc2cc3c(cc2oc1=O)O[C@H](C(C)(C)OC(C)=O)C3 | pEC50 | 5.27
